# System: Bacillus subtilis
# test: cleaved RNA product abundance (RNA/gDNA barcode ratio) relative to median wild-type variant (ratio to wild type); higher = more accumulation of the downstream cleavage product
# measurement.parameters: experiment (reporter, strain, medium): exp 4a: truncated aprE reporter, strain BJT201 with 2% xylose (RNase J1 expressed); cleavage site: cggR-gapA (positions -7 to +36 mutated)
measurement.name: cleaved RNA product abundance

[[record]]
monomer_sequence = "ACAGACGAAGGAGCCGCAAAGAAGTCATGAAGGGATGAATAATCCCTCAATATAAATATCTCTCACTTATTTAAA"
readout_number = 0.325

[[record]]
monomer_sequence = "ACAGACGAAGGAGCCGCAAAGAAGTTATTAAGGTATGAATAATCCATCAATATAAATATCTCTCACTTATTTAAA"
readout_number = 0.145

[[record]]
monomer_sequence = "ACAGACGAAGGAGCCGCAAAGAAGTTATTAAGGGATGAATAATCCCTCAATTTAAATGTCTCTCACTTATTTAAA"
readout_number = 0.048

[[record]]
monomer_sequence = "ACAGACGAAGGAGCCGCAAAGATGTTATTAAAGGATGAATAATCCCTCAATATAAATATCTCTCACTTATTTAAA"
readout_number = 0.129

[[record]]
monomer_sequence = "ACAGACGAAGGAGCCGCAAAGAAGTTATTAAAGGATGAACAATCCCTCAATATAAATATCTCTCACTTATTTAAA"
readout_number = 0.207

[[record]]
monomer_sequence = "ACAGACGAAGGAGCCGCAAAGAAGTTTTTAAGGTATGAATAATCCCTCAATATAAATATCTCTCACTTATTTAAA"
readout_number = 0.098

[[record]]
monomer_sequence = "ACAGACGAAGGAGCCGCAAAGAAGTTATTAATGGATGAATAATCTCTCAATATAAATATCTCTCACTTATTTAAA"
readout_number = 0.14

[[record]]
monomer_sequence = "ACAGACGAAGGAGCCGCAAAGAAGTCATTAAGGGATGAATAATCGCTCAATATAAATATCTCTCACTTATTTAAA"
readout_number = 0.107

[[record]]
monomer_sequence = "ACAGACGAAGGAGCCGCAAAGAAGTTATTAATGTATGAATAATCCCTCAATATAAATATCTCTCACTTATTTAAA"
readout_number = 0.1

[[record]]
monomer_sequence = "ACAGACGAAGGAGCCGCAAAGAAGTTATTAAGCGATCAATAATCCCTCAATATAAATATCTCTCACTTATTTAAA"
readout_number = 0.0886

[[record]]
monomer_sequence = "ACAGACGAAGGAGCCGCAAAGAACTTATTAAGGTATGAATAATCCCTCAATATAAATATCTCTCACTTATTTAAA"
readout_number = 0.108


###

# Test system: Bacillus subtilis
# test: cleaved RNA product abundance (RNA/gDNA barcode ratio) relative to median wild-type variant (ratio to wild type); higher = more accumulation of the downstream cleavage product
# measurement.parameters: experiment (reporter, strain, medium): exp 4a: truncated aprE reporter, strain BJT201 with 2% xylose (RNase J1 expressed); cleavage site: cggR-gapA (positions -7 to +36 mutated)
Measured cleaved RNA product abundance of individual entries
measurement.name: cleaved RNA product abundance

[[record]]
monomer_sequence = "ACAGACGAAGGAGCCGCAAAGAAGTTATTAAGGGATGAACAATCCCTCGATATAAATATCTCTCACTTATTTAAA"
result = 0.554

[[record]]
monomer_sequence = "ACAGACGAAGGAGCCGCAAAGGACTTATTAAGGGATGAATAATCCCTCAATATAAATATCTCTCACTTATTTAAA"
result = 0.173

[[record]]
monomer_sequence = "ACAGACGAAGGAGCCGCAAAGAAGTTATTAAGAGATGAATAATCCCTCAATTTAAATATCTCTCACTTATTTAAA"
result = 0.0573

[[record]]
monomer_sequence = "ACAGACGAAGGAGCCGCAAAGAAGTTATTAAGGGAAGAAAAATCCCTCAATATAAATATCTCTCACTTATTTAAA"
result = 0.436

[[record]]
monomer_sequence = "ACAGACGAAGGAGCCGCAAAGAAGTTTTAAGGGATGAATAATCCCTCAATATAAATATCTCTCACTTATTTAAAG"
result = 0.15

[[record]]
monomer_sequence = "ACAGACGAAGGAGCCGCAACGAAGTTATTATGGGATGAATAATCCCTCAATATAAATATCTCTCACTTATTTAAA"
result = 0.483

[[record]]
monomer_sequence = "ACAGACGAAGGAGCCGCAAAGAAGTTATTAGAGGATGAATAATCCCTCAATATAAATATCTCTCACTTATTTAAA"
result = 0.301

[[record]]
monomer_sequence = "ACAGACGAAGGAGCCGCAAAGAAGTTATAAAGGGATGAATACTCCCTCAATATAAATATCTCTCACTTATTTAAA"
result = 0.287

